# TARGET_OR_SYSTEM: Bromodomain-containing protein 2 (Homo sapiens) (UniProt P25440)
# Sequence (P25440 whole entry, looked up): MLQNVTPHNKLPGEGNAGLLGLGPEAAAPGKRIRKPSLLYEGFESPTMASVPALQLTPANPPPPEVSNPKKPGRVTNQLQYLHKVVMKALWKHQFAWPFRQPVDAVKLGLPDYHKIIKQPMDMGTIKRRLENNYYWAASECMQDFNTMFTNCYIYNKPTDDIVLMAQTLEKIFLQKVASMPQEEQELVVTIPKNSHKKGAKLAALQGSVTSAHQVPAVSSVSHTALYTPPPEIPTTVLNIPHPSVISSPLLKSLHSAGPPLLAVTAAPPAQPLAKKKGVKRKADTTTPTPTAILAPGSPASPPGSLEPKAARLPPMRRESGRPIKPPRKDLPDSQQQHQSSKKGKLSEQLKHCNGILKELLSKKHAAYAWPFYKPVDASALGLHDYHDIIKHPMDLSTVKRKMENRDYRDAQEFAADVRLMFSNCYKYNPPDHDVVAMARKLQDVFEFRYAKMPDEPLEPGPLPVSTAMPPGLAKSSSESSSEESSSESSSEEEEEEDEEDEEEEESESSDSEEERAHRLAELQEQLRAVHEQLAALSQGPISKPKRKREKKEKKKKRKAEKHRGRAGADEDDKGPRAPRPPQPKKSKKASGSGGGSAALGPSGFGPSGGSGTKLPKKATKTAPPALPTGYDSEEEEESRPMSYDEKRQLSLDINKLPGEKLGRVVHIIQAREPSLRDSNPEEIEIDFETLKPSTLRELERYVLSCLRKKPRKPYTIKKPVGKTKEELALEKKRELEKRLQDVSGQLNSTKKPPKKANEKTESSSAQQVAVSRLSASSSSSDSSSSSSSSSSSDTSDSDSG
# PROTOCOL_NOTES: Binding affinity to BRD2-BD2 assessed as change in melting temperature at 10 uM by protein stability shift assay
The source made the active and inactive calls. The calls are words filed in the database; no cut-off is given here.
Pick one and only one: 1.0 for active, 0.0 for inactive

Clc1ccc2c(c1)C(c1ccccc1)=NCc1nncn1-2 = 0.0
Cc1ncc2n1-c1ccc(Cl)cc1C(c1ccccc1F)=NC2 = 1.0
Cc1nnc2n1-c1ccc(Cl)cc1C(c1ccccc1)=NN2C = 1.0
CCOC(=O)c1ncn2c1[C@@H]1CCCN1C(=O)c1cc(OC)ccc1-2 = 0.0

Alright, here's another molecule for you.
Q) Query: recorded result category for "Cc1nnc2n1-c1ccc(Cl)cc1C(c1ccccc1)=NC2" in this test
A) 1.0

* * *

# TARGET_OR_SYSTEM: Protein polybromo-1 (Homo sapiens)
# PROTOCOL_NOTES: Binding affinity to PB1 assessed as change in melting temperature at 100 uM by protein stability shift assay
Form field: ΔTm (one value per entry).

CN1N=C(c2ccccc2)c2cc(Cl)ccc2-n2c(N)nnc21 = < 2 °C
CCC1=NCc2nnc(-c3cccc(OC)c3)n2-c2ccc(Cl)cc21 = < 2 °C
Cc1nnc2n1-c1ccc(Cl)cc1C(c1ccccc1)=NN2C = < 2 °C
CCC1=NCc2nnc(CC)n2-c2ccc(Cl)cc21 = < 2 °C
CCC1=NCc2nnc(-c3ccccc3)n2-c2ccc(Cl)cc21 = < 2 °C

Q) I'd like to know its ΔTm. The compound in question is "CCC1=NCc2nnc(-c3ccncc3)n2-c2ccc(Cl)cc21"
A) < 2 °C

Q) Repeat for the following compound: "CN1N=C(c2ccccc2)c2cc(Cl)ccc2NC1=S"
A) < 2 °C

Q) Can you handle "CCC1=NCC(=S)Nc2ccc(Cl)cc21" next?
A) < 2 °C

Q) Please answer likewise for "CN1N=C(c2ccccc2)c2cc(Cl)ccc2-n2c1n[nH]c2=O"
A) < 2 °C

Q) Repeat for the following compound: "CCC1=NCC(=O)Nc2ccc(Cl)cc21"
A) < 2 °C

Q) Similarly, "CC(=O)NNC1=Nc2ccc(Cl)cc2C(c2ccccc2)=NN1C" ?
A) < 2 °C

Q) Same again, this time with "CCC1=NCc2nnc(C)n2-c2ccc(Cl)cc21"
A) < 2 °C

* * *

# PROTOCOL_NOTES: Binding affinity to LOC93349 assessed as change in melting temperature at 10 uM by protein stability shift assay
Active and inactive are the calls of the source. No cut-off for these calls is given here.
Reply using exactly one outcome from 1 (active), 0 (inactive)

Q) For "Clc1ccc2c(c1)C(c1ccccc1)=NCc1nncn1-2" , which call appears in the assay record?
A) 0

Q) Let us now turn to "Cc1ncc2n1-c1ccc(Cl)cc1C(c1ccccc1F)=NC2"
A) 0

Q) Now the same for "CCOC(=O)c1ncn2c1[C@@H]1CCCN1C(=O)c1cc(OC)ccc1-2"
A) 0

Q) Same question, "Cc1nnc2n1-c1ccc(Cl)cc1C(c1ccccc1)=NN2C" this time
A) 1

Q) Same again, this time with Cc1nnc2n1-c1ccc(Cl)cc1C(c1ccccc1)=NC2 [ALPRAZOLAM]
A) 0

* * *

# TARGET_OR_SYSTEM: CREB-binding protein (Homo sapiens) (UniProt Q92793)
# Sequence (Q92793 2-2442 limits assumed): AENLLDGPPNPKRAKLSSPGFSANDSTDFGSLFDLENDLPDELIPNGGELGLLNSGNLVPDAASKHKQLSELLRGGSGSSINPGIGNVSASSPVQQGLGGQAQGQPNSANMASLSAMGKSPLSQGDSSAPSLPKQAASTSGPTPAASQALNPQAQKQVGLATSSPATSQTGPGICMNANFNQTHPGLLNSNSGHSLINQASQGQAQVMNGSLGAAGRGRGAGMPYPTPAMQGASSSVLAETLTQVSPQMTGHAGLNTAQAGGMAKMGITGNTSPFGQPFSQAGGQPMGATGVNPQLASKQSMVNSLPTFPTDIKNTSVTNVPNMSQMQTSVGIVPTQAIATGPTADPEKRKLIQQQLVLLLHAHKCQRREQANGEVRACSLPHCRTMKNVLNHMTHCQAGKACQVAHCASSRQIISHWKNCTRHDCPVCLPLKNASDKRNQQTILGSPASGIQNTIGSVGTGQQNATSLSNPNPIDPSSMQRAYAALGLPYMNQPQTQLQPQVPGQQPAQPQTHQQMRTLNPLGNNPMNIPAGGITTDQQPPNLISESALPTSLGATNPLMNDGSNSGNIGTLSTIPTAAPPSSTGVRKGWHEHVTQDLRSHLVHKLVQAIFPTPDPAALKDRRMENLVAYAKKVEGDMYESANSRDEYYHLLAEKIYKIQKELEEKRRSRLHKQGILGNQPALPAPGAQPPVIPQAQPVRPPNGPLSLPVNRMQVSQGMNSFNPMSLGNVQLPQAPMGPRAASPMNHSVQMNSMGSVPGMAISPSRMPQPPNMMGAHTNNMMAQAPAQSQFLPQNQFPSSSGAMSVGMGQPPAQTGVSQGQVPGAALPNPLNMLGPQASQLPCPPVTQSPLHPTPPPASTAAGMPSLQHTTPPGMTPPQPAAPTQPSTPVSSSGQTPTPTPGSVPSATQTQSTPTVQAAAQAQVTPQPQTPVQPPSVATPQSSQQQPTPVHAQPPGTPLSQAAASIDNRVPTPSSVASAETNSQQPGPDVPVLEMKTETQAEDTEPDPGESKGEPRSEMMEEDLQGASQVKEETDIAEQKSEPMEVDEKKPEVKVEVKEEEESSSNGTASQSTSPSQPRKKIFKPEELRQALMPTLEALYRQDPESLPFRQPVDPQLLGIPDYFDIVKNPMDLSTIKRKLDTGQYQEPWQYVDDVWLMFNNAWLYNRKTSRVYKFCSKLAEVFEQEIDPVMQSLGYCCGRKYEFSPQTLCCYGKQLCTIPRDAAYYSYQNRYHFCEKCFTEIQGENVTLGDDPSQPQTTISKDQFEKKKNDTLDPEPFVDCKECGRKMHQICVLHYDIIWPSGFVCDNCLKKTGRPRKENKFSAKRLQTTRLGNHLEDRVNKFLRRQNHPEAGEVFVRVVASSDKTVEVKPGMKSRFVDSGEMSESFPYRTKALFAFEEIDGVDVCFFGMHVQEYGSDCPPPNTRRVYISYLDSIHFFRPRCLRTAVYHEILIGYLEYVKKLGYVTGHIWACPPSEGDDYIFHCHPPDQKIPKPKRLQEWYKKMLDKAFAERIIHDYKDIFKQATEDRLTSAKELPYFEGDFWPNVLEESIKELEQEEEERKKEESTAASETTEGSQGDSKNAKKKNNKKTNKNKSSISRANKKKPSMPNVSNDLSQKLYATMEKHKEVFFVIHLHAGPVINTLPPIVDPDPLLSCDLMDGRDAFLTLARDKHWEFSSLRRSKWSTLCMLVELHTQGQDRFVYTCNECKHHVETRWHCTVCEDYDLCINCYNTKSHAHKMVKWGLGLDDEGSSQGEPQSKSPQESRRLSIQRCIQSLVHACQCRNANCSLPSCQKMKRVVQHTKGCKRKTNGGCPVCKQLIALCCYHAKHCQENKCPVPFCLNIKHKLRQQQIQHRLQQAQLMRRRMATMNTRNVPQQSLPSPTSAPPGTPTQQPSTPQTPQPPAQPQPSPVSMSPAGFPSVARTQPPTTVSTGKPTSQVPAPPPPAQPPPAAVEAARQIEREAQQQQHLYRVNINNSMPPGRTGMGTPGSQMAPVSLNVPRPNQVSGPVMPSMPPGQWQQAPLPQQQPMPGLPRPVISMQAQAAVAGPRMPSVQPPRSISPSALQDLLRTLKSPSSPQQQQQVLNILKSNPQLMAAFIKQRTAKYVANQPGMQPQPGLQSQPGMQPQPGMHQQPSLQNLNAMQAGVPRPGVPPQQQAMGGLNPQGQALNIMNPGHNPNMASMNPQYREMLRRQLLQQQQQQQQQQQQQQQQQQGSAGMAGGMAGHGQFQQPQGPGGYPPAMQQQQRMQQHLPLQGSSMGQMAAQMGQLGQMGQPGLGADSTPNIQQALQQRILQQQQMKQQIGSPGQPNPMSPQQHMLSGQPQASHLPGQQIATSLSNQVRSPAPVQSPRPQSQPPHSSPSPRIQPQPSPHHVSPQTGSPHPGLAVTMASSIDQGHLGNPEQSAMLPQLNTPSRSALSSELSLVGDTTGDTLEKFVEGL
# PROTOCOL_NOTES: Binding affinity to CREBBP assessed as change in melting temperature at 10 uM by protein stability shift assay
The source made the active and inactive calls. The rule behind the calls is not given here.
Field 'call' accepts Y for active, N for inactive

Previously resolved entries follow.
Cc1nnc2n1-c1ccc(Cl)cc1C(c1ccccc1)=NC2 = Y
Cc1nnc2n1-c1ccc(Cl)cc1C(c1ccccc1)=NN2C = Y
Cc1ncc2n1-c1ccc(Cl)cc1C(c1ccccc1F)=NC2 = Y
Clc1ccc2c(c1)C(c1ccccc1)=NCc1nncn1-2 = Y

Now take the following compound into account.
Q) Query: recorded result category for "CCOC(=O)c1ncn2c1[C@@H]1CCCN1C(=O)c1cc(OC)ccc1-2" in this test
A) N

* * *

Recorded ΔTm, one value per entry.
# PROTOCOL_NOTES: Binding affinity to LOC93349 assessed as change in melting temperature at 100 uM by protein stability shift assay

Worked examples, 8 compounds total:
CCC1=NCc2nnc(-c3ccncc3)n2-c2ccc(Cl)cc21 = < 2 °C
CN1N=C(c2ccccc2)c2cc(Cl)ccc2NC1=S = < 2 °C
CCC1=NCC(=O)Nc2ccc(Cl)cc21 = < 2 °C
CCC1=NCc2nnc(-c3cccc(OC)c3)n2-c2ccc(Cl)cc21 = < 2 °C
Cc1nnc2n1-c1ccc(Cl)cc1C(c1ccccc1)=NN2C = < 2 °C
CN1N=C(c2ccccc2)c2cc(Cl)ccc2-n2c1n[nH]c2=O = < 2 °C
CCC1=NCc2nnc(-c3ccccc3)n2-c2ccc(Cl)cc21 = < 2 °C
CC(=O)NNC1=Nc2ccc(Cl)cc2C(c2ccccc2)=NN1C = < 2 °C

Q) Can you share its ΔTm? I mean this compound: "CCC1=NCC(=S)Nc2ccc(Cl)cc21"
A) < 2 °C

Q) Queued: "CCC1=NCc2nnc(C)n2-c2ccc(Cl)cc21"
A) < 2 °C

Q) // repeat for "CN1N=C(c2ccccc2)c2cc(Cl)ccc2-n2c(N)nnc21" and report
A) < 2 °C

Q) Now give it for "CCC1=NCc2nnc(CC)n2-c2ccc(Cl)cc21" too.
A) < 2 °C

* * *

# TARGET_OR_SYSTEM: Bromodomain-containing protein 4 (Homo sapiens, UniProt O60885)
# PROTOCOL_NOTES: Binding affinity to BRD4-BD1 assessed as change in melting temperature at 10 uM by protein stability shift assay
Calls of active or inactive are those of the source. The calls are words filed in the database; no cut-off is given here.
REPORTED_METRIC: Activity

// below: answered compounds
Cc1nnc2n1-c1ccc(Cl)cc1C(c1ccccc1)=NN2C = Active
Clc1ccc2c(c1)C(c1ccccc1)=NCc1nncn1-2 = Active
Cc1ncc2n1-c1ccc(Cl)cc1C(c1ccccc1F)=NC2 = Active
Cc1nnc2n1-c1ccc(Cl)cc1C(c1ccccc1)=NC2 = Active

Kindly review the next compound as well.
Q) Given the entry "CCOC(=O)c1ncn2c1[C@@H]1CCCN1C(=O)c1cc(OC)ccc1-2" , what Activity was observed with Bromodomain-containing protein 4 (Homo sapiens, UniProt O60885)?
A) Active

* * *

# TARGET_OR_SYSTEM: UniProtKB Q92831
# Sequence (Q92831 whole entry, looked up): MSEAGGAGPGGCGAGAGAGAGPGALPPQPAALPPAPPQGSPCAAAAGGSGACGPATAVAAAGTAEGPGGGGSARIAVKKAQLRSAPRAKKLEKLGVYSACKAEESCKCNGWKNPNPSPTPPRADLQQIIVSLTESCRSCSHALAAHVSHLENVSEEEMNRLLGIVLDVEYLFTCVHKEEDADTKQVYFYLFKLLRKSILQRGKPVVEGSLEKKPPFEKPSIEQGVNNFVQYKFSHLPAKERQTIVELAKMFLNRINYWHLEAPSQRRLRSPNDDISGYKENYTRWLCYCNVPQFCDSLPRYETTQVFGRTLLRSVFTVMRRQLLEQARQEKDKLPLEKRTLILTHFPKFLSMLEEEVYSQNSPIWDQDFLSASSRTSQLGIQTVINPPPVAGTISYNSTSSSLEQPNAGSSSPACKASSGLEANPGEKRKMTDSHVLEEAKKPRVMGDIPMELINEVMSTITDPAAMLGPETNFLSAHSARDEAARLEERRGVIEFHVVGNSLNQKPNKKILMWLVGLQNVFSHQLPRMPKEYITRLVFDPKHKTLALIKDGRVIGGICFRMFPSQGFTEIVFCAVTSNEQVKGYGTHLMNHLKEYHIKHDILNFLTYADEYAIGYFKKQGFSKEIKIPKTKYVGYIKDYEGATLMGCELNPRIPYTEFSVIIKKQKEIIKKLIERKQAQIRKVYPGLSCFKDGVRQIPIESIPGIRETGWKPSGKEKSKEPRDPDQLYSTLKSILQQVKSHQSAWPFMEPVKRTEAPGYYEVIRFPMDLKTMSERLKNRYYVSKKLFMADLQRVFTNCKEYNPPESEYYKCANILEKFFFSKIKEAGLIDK
# PROTOCOL_NOTES: Binding affinity to PCAF assessed as change in melting temperature at 10 uM by protein stability shift assay
Calls of active or inactive are those of the source. No cut-off for these calls is given here.
Use one of these outcomes when replying: active, inactive

Example entries begin here.
Clc1ccc2c(c1)C(c1ccccc1)=NCc1nncn1-2 = inactive
Cc1ncc2n1-c1ccc(Cl)cc1C(c1ccccc1F)=NC2 = inactive
CCOC(=O)c1ncn2c1[C@@H]1CCCN1C(=O)c1cc(OC)ccc1-2 = inactive

Q) What was the test verdict on "Cc1nnc2n1-c1ccc(Cl)cc1C(c1ccccc1)=NC2" ?
A) inactive

Q) Also need "Cc1nnc2n1-c1ccc(Cl)cc1C(c1ccccc1)=NN2C" , thanks.
A) active

* * *

# TARGET_OR_SYSTEM: Bromodomain-containing protein 4 (Homo sapiens)
# PROTOCOL_NOTES: Binding affinity to BRD4-BD2 assessed as change in melting temperature at 10 uM by protein stability shift assay
Calls of active or inactive are those of the source. The rule behind the calls is not given here.
REPORTED_METRIC: Activity

Some molecules with known Activity results, for comparison:
Cc1ncc2n1-c1ccc(Cl)cc1C(c1ccccc1F)=NC2 = Active
Clc1ccc2c(c1)C(c1ccccc1)=NCc1nncn1-2 = Active
Cc1nnc2n1-c1ccc(Cl)cc1C(c1ccccc1)=NC2 = Active
Cc1nnc2n1-c1ccc(Cl)cc1C(c1ccccc1)=NN2C = Active

Q) # input molecule: "CCOC(=O)c1ncn2c1[C@@H]1CCCN1C(=O)c1cc(OC)ccc1-2" ; wanted: its Activity
A) Active

* * *

# TARGET_OR_SYSTEM: Protein polybromo-1 (Homo sapiens) (UniProt Q86U86)
# PROTOCOL_NOTES: Binding affinity to PB1 assessed as change in melting temperature at 10 uM by protein stability shift assay
The source made the active and inactive calls. The calls are words filed in the database; no cut-off is given here.
Choose the fitting class; nothing outside 1 (yes) for active, 0 (no) for inactive is accepted.

Worked examples follow.
Cc1ncc2n1-c1ccc(Cl)cc1C(c1ccccc1F)=NC2 = 0 (no)
Cc1nnc2n1-c1ccc(Cl)cc1C(c1ccccc1)=NC2 [ALPRAZOLAM] = 1 (yes)
CCOC(=O)c1ncn2c1[C@@H]1CCCN1C(=O)c1cc(OC)ccc1-2 = 0 (no)
Cc1nnc2n1-c1ccc(Cl)cc1C(c1ccccc1)=NN2C = 1 (yes)

Q) # lookup: test call for "Clc1ccc2c(c1)C(c1ccccc1)=NCc1nncn1-2"
A) 0 (no)

* * *

# TARGET_OR_SYSTEM: Bromodomain testis-specific protein (Homo sapiens) (UniProt Q58F21)
# PROTOCOL_NOTES: Binding affinity to BRDT-BD1 assessed as change in melting temperature at 10 uM by protein stability shift assay
Calls of active or inactive are those of the source. No cut-off for these calls is given here.
Choose the fitting class; nothing outside TRUE for active, FALSE for inactive is accepted.

Example cases with answers are listed next.
Cc1nnc2n1-c1ccc(Cl)cc1C(c1ccccc1)=NC2 [ALPRAZOLAM] = TRUE
Cc1nnc2n1-c1ccc(Cl)cc1C(c1ccccc1)=NN2C = TRUE
Clc1ccc2c(c1)C(c1ccccc1)=NCc1nncn1-2 = FALSE
CCOC(=O)c1ncn2c1[C@@H]1CCCN1C(=O)c1cc(OC)ccc1-2 = FALSE

Field: next molecule
Q) In this assay, the call recorded for "Cc1ncc2n1-c1ccc(Cl)cc1C(c1ccccc1F)=NC2" was what?
A) TRUE
